Consider the following IC50 data for Galectin-3 (Homo sapiens, UniProt P17931), collected from several reports.
Report only the number, with the unit nM understood.

Known results for molecules:
Incoming: Please give the measured IC50 for this molecule: CO[C@@H]1[C@@H](n2cc(-c3cc(F)c(F)c(F)c3)nn2)[C@@H](O)[C@@H](CO)O[C@@H]1C[C@@H]1CN(C2CCN(C(=O)C(C)C)CC2)C(=O)O1
Outgoing: 590

Incoming: Entry under review: COC1C(n2cc(-c3cc(F)c(F)c(F)c3)nn2)[C@@H](O)C(CO)O[C@H]1[C@H](OCc1ccc(Cl)cc1)C(=O)N(C)C (stereo partly drawn) . Reported IC50?
Outgoing: 2060

Incoming: Which IC50 is reported for this molecule? CO[C@@H]1[C@@H](n2cc(-c3ccc(C)c(F)c3F)nn2)[C@@H](O)[C@@H](CO)O[C@@H]1Cc1cc(C2(O)CCCC2)on1
Outgoing: 72

Incoming: Endpoint output: IC50 of CC(=O)O[C@@H]1[C@@H](n2cc(-c3cc(F)c(F)c(F)c3)nn2)[C@@H](O)[C@@H](CO)O[C@H]1C(=O)N(c1cc(Cl)cc(Cl)c1)[C@H]1CC[C@@H]1O . Value?
Outgoing: 29

Incoming: If you can, please state the reported IC50 value of CO[C@@H]1[C@@H](n2cc(-c3ccc(C)c(F)c3F)nn2)[C@@H](O)[C@@H](CO)O[C@@H]1CC1=NOC2(C1)CC1CCC(C1)C2 (stereo partly drawn) .
Outgoing: 50

Here is another molecule to look at.
Incoming: Please report the recorded IC50 for CO[C@@H]1[C@@H](n2cc(-c3cc(F)c(C)c(F)c3)nn2)[C@@H](O)[C@@H](CO)O[C@@H]1Cc1cc(C2CCOCC2)on1 .
Outgoing: 150

---

Field IC50: reported value for Galectin-3 (Homo sapiens, UniProt P17931); entries drawn from several documents.
Please respond with the number in nM and leave the unit unwritten.

Previously resolved entries follow.
Incoming: Param readout= IC50; system= Galectin-3 (Homo sapiens, UniProt P17931); entry= COC1C(n2cc(-c3cc(F)c(F)c(F)c3)nn2)[C@@H](O)C(CO)O[C@H]1[C@H](OCc1ccc(Br)cc1)C(=O)N[C@@H](C)CF (stereo partly drawn) ; returns value.
Outgoing: 526

Incoming: Hi! What's the reported IC50 for CO[C@@H]1[C@@H](n2cc(-c3cc(F)cc(Br)c3)nn2)[C@@H](O)[C@@H](CO)O[C@H]1C(=O)N(c1cc(F)cc(C#N)c1)[C@@H]1CCC[C@H]1O on Galectin-3 (Homo sapiens, UniProt P17931)?
Outgoing: 1030

Would you kindly look at the next entry?
Incoming: Under Galectin-3 (Homo sapiens, UniProt P17931): IC50 value of CO[C@@H]1[C@@H](n2cc(-c3ccc4nc(C)sc4c3)nn2)[C@@H](O)[C@@H](CO)O[C@H]1C(=O)N(c1cc(Cl)cc(Cl)c1)[C@H]1CCCC[C@@H]1O ?
Outgoing: 41

---

pIC50: −log10 of the molar value.
Kindly find below pIC50 information for Galectin-3 (Homo sapiens) taken from the literature.
Lab note: anything with pIC50 at or over 7 counts as condition met; the rest go in condition not met.

Solved cases (7 shown):
Incoming: Reported pIC50 reaches at least 7 for CC(=O)O[C@@H]1[C@@H](n2cc(-c3cc(F)c(F)c(F)c3)nn2)[C@@H](O)[C@@H](CO)O[C@@H]1CC1=NO[C@@H](C2CCN(C(C)=O)CC2)C1 ?
Outgoing: condition not met

Incoming: # bool: pIC50 of CC(=O)O[C@@H]1[C@@H](n2cc(-c3cc(F)c(F)c(F)c3)nn2)[C@@H](O)[C@@H](CO)O[C@@H]1CC1=NO[C@H](C2CCN(C(C)=O)CC2)C1 >= 7
Outgoing: condition not met

Incoming: Exam item: decide whether the reported pIC50 for CCON=C(CC)C(OCc1ccc(Cl)cc1)C1OC(CO)C(O)C(n2cc(-c3cc(F)c(F)c(F)c3)nn2)C1O (centres unmarked) is at least 7.
Outgoing: condition not met

Incoming: Test whether the molecule COc1ccc(F)cc1-c1cn([C@H]2[C@@H](O)[C@@H](CO)O[C@@H](C(=O)N(c3cc(Cl)cc(C#N)c3)[C@H]3CCCC[C@@H]3O)[C@@H]2OC)nn1 records pIC50 of 7 or higher.
Outgoing: condition met

Incoming: Quick check, pIC50 >= 7? CO[C@@H]1[C@@H](n2cc(-c3cc(F)c(F)c(F)c3)nn2)[C@@H](O)[C@@H](CO)O[C@@H]1CN1CC(C2CCN(C(=O)OC(C)(C)C)CC2)OC1=O (mixture of isomers)
Outgoing: condition not met

Incoming: Test whether the molecule CO[C@@H]1[C@@H](n2cc(-c3cccc(F)c3)nn2)[C@@H](O)[C@@H](CO)O[C@H]1C(=O)N(c1cc(Cl)cc(C#N)c1)[C@H]1CCC[C@@H]1O records pIC50 of 7 or higher.
Outgoing: condition met

Incoming: Does the reported pIC50 for CCOC(=O)N1CCC(C)(c2cc(C[C@H]3O[C@H](CO)[C@H](O)[C@H](n4cc(-c5ccc(C)c(F)c5F)nn4)[C@H]3OC)on2)CC1 fall at or above the 7 mark?
Outgoing: condition met

Next:
Incoming: Given the entry CO[C@@H]1[C@@H](n2cc(-c3cc(F)c(C)cc3F)nn2)[C@@H](O)[C@@H](CO)O[C@@H]1Cc1cc(C2CCCCC2)on1 , answer whether its pIC50 meets or surpasses 7.
Outgoing: condition not met

---

Compiled from multiple publications: pIC50 readings for Galectin-3 (Homo sapiens).
Remember, pIC50 is on a log scale: it is -log10 of the molar concentration.

// below: answered compounds
Incoming: I'm curious: which pIC50 was measured for CNC(=O)[C@@H](OCc1ccc(Cl)cc1)[C@@H]1OC(CO)[C@H](O)C(n2cc(-c3cc(F)c(F)c(F)c3)nn2)C1O (stereo partly drawn) tested on Galectin-3 (Homo sapiens)?
Outgoing: 6.49

Incoming: Field: pIC50 (Galectin-3 (Homo sapiens)). Entry: O=C([C@@H]1O[C@H](CO)[C@H](O)[C@H](n2cc(-c3nc(Cl)cs3)nn2)[C@H]1O)N(Cc1ccccc1C(F)(F)F)[C@H]1CCCC[C@@H]1O
Outgoing: 6.84

Incoming: Write down the reported pIC50 of CO[C@@H]1[C@@H](n2cc(-c3cc(F)c(F)c(F)c3)nn2)[C@@H](O)[C@@H](CO)O[C@H]1C(=O)N(c1ccc(F)c(Cl)c1)[C@H]1CCCC[C@@H]1O , test system: Galectin-3 (Homo sapiens).
Outgoing: 7.59

Incoming: Look up pIC50 with Galectin-3 (Homo sapiens) for this compound: CO[C@@H]1[C@@H](n2cc(-c3cc(F)c(F)c(F)c3)nn2)[C@@H](O)[C@@H](CO)O[C@@H]1Cc1cc(C2CCN(CC3CC3)CC2)on1
Outgoing: 6.89

Incoming: Give recorded pIC50 with Galectin-3 (Homo sapiens) for the following compound: CO[C@@H]1[C@@H](n2cc(-c3ccc(Cl)c(F)c3F)nn2)[C@@H](O)[C@@H](CO)O[C@@H]1Cc1cn(C(C)(C)C)nn1
Outgoing: 7.47

// moving on: another record for pIC50
Incoming: Recall the recorded pIC50 for CCCS(=O)(=O)N1CCC(c2cc(C[C@H]3O[C@H](CO)[C@H](O)[C@H](n4cc(-c5cc(F)c(F)c(F)c5)nn4)[C@H]3OC)no2)CC1 with Galectin-3 (Homo sapiens) and state it.
Outgoing: 7.36

---

Study the reported IC50 values for Galectin-3 (Homo sapiens) given below; they originate from different publications.
Write the answer as a number in nM, unit excluded.

Consider the reported IC50 for these molecules:
Incoming: IC50 of CO[C@@H]1[C@@H](n2cc(-c3cc(F)c(F)c(F)c3)nn2)[C@@H](O)[C@@H](CO)O[C@@H]1Cc1cc(C2CCN(C(=O)N3CCCC3)CC2)on1 on Galectin-3 (Homo sapiens)?
Outgoing: 69

Incoming: # query: IC50 | item CC(C)(C)OC(=O)N1CCC(C2=NOC(C[C@H]3O[C@H](CO)[C@H](O)[C@H](n4cc(-c5ccc6ncsc6c5)nn4)[C@H]3O)C2)CC1 (some centres unmarked) | system: Galectin-3 (Homo sapiens)
Outgoing: 1560

Incoming: Quick check: IC50 on Galectin-3 (Homo sapiens), item CC(C)(C)OC(=O)N1CCC(c2cc(C[C@H]3O[C@H](CO)[C@H](O)[C@H](n4cc(-c5cc(F)c(F)c(F)c5)nn4)[C@H]3O)no2)C1 (some centres unmarked) ?
Outgoing: 660

Incoming: State its IC50 on Galectin-3 (Homo sapiens): CO[C@@H]1[C@@H](n2cc(-c3cc(F)cc(Br)c3)nn2)[C@@H](O)[C@@H](CO)O[C@H]1C(=O)N(c1cccc(C#N)c1)[C@H]1CCCC[C@@H]1O
Outgoing: 81

Incoming: I'm curious: which IC50 was measured for CC(=O)O[C@@H]1[C@@H](n2cc(-c3cc(F)c(F)c(F)c3)nn2)[C@@H](O)[C@@H](CO)O[C@H]1C(=O)N(c1cc(Cl)cc(C#N)c1)[C@H]1CC[C@@H]1O tested on Galectin-3 (Homo sapiens)?
Outgoing: 36.2

More entries:
Incoming: // fetch Galectin-3 (Homo sapiens) IC50 for CO[C@@H]1[C@@H](n2cc(-c3cc(F)c(Br)c(F)c3)nn2)[C@@H](O)[C@@H](CO)O[C@H]1C(=O)N(c1cc(Br)cc(C#N)c1)[C@@H]1CC[C@H]1O
Outgoing: 303

Incoming: Notebook entry, Galectin-3 (Homo sapiens) assay: IC50 of CO[C@@H]1[C@@H](n2cc(-c3cc(F)c(F)c(F)c3)nn2)[C@@H](O)[C@@H](CO)O[C@@H]1Cc1cc(C2CCCC2)on1 = ?
Outgoing: 230

Incoming: // map COc1cc(-c2cn([C@H]3[C@@H](O)[C@@H](CO)O[C@@H](C(=O)N(c4cc(Br)cc(C#N)c4)[C@H]4CCC[C@@H]4O)[C@@H]3OC)nn2)cc(F)c1F to recorded IC50 (system: Galectin-3 (Homo sapiens))
Outgoing: 25.4

Incoming: Form field - read-out: IC50; system: Galectin-3 (Homo sapiens); submitted item: CO[C@@H]1[C@@H](n2cc(-c3ccc(C)c(F)c3F)nn2)[C@@H](O)[C@@H](CO)O[C@@H]1Cc1cc(C(C)(O)c2ccccc2)on1 (some centres unmarked)
Outgoing: 280

Incoming: Under Galectin-3 (Homo sapiens): IC50 value of COc1cnc2ccc(F)c(CN(C(=O)[C@@H]3O[C@H](CO)[C@H](O)[C@H](n4cc(-c5cc(F)c(F)c(F)c5)nn4)[C@H]3OC)[C@H]3CCCC[C@@H]3O)c2n1 ?
Outgoing: 123

Incoming: # query: IC50 | item CO[C@@H]1[C@@H](n2cc(-c3ccc(Cl)c(OC(F)(F)F)c3)nn2)[C@@H](O)[C@@H](CO)O[C@H]1C(=O)N(c1cc(Cl)cc(C#N)c1)[C@H]1CCCC[C@@H]1O | system: Galectin-3 (Homo sapiens)
Outgoing: 232
